These data points were gathered from patent US20230049752A1.

Target: T1, Claudin-4 (CLDN4) (human, UniProt O14493 1-209)
T1 construct: whole, on cells; also called CLDN4-GFP; CLDN4-mGFP
T1 sequence (looked up): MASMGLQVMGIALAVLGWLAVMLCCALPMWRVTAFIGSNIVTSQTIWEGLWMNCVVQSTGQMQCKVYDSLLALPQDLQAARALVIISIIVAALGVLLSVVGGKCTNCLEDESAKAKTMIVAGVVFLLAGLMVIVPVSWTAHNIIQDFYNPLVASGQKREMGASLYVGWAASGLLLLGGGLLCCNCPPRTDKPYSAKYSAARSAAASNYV
Assay: FACS titration of labelled mAb on HEK293T CLDN4-mGFP cells
For each entry below, report its EC50 value.
Answer format: numeric, nM implied, no suffix.

Input line: GET /values?readout=EC50&item= AB12 (antibody, V domains shown, full-length IgG (ExpiCHO)) VH: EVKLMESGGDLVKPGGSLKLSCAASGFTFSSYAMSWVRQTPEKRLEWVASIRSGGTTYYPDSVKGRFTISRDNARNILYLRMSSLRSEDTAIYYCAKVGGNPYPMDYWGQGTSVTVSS VL: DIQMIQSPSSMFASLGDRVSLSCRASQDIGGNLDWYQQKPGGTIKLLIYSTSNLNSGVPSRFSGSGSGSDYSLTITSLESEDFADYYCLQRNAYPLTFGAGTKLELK
Output line: 2090

Input line: GET /values?readout=EC50&item= AB11 (antibody, V domains shown, full-length IgG (ExpiCHO)) VH: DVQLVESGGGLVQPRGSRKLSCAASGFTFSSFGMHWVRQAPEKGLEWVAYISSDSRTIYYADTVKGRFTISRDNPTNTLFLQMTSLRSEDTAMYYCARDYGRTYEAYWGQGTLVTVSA VL: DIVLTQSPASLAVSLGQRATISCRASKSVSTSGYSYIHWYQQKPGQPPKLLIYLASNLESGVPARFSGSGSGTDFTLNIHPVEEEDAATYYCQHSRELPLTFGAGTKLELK
Output line: 2240

Input line: GET /values?readout=EC50&item= AB7 (antibody, V domains shown, full-length IgG (ExpiCHO)) VH: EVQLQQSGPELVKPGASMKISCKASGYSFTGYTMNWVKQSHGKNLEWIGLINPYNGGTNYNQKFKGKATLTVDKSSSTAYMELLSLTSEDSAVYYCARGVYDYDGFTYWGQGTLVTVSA VL: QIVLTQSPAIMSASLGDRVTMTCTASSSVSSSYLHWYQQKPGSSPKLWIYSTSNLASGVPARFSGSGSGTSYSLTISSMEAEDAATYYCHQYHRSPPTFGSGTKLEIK
Output line: 2090

Input line: GET /values?readout=EC50&item= AB6 (antibody, V domains shown, full-length IgG (ExpiCHO)) VH: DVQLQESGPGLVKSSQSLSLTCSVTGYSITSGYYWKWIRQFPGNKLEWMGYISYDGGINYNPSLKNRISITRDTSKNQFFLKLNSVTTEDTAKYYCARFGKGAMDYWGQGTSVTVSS VL: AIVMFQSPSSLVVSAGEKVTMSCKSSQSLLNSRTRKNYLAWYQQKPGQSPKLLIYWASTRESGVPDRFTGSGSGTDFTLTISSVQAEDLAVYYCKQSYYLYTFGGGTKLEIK
Output line: 26
